# System: naturally aged mice
# Assay: Anti-aging evaluation in naturally aged mice, Example 31, Table 55
# Assay type: in vivo, mouse
# Condition Notes: untreated 0.82 g
Let's look at some molecules and their measured Fat Mass.
Numbers only here, please. The scale is g.

CCN(CC1C(=O)C2CCN1CC2)C(=O)C(Cl)(Cl)Cl (stereo not shown) = 0.85
COc1cc(OC)cc(N(CCNC(C)C)c2ccc3ncc(-c4cnn(C)c4)nc3c2)c1 = 0.97
Fc1ccc(-n2cc(CCCCN3CCC4(CC3)OCc3ccccc34)c3ccccc32)cc1 = 0.95

Moving on to the next molecule.
(Q) Please give the measured Fat Mass for this molecule: Cc1nnc(-c2cc(C(=O)N3CCC(c4ccc(C#N)cc4)CC3)c(C)cc2C2CCC2)[nH]1
(A) 0.91

---

# Test system: naturally aged mice
# Assay: Anti-aging evaluation in naturally aged mice, Example 31, Table 55;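 note: Vehicle-dosed control mice received solution alone at matching volume, values compare test-compound-treated aged mice against that control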
# Assay type: in vivo, mouse
# Condition Notes: liver, untreated = 100%
Measure Name: Liver p16 mRNA
// unit must come after the numeric part

Example results:
O=C1C2CCN(CC2)C1(CO)COCc1ccccc1 (stereo not shown) [LX-5711] = 65%
CCN(CC)C(=S)SSC(=S)N(CC)CC [LX-1601, Disulfiram] = 62%
COc1cc(OC)cc(N(CCNC(C)C)c2ccc3ncc(-c4cnn(C)c4)nc3c2)c1 [LX-1903, Erdafitinib] = 69%
Cn1cc(C[C@@H](N)C(=O)O)c2ccccc21 [LX-8801, Indoximod] = 54%
O=C(NCc1ccncc1)C12CC3CC(C1)CC(c1ccc(Cl)cc1)(C3)C2 [LX-3106, Opaganib] = 76%

(Q) State the recorded Liver p16 mRNA for this entry: CC12CCN(CC1)C(CN(C1CC1)S(C)(=O)=O)C2=O (stereo not shown) [LX-5707]
(A) 59%

(Q) Please do the same for C[C@H](N)C(=O)N1C[C@H](CCCB(O)O)[C@](N)(C(=O)O)C1 [LX-3107, Numidargistat] as well.
(A) 54%

---

# System: senescent cells
# Assay: Viability of senescent cells (CellTiter-Glo), Example 17, Table 13
# Condition Notes: 1.1 μM; doxorubicin-induced senescent cells; 0 μM = 100
The entries below are paired with their reported Survival (%).
Numeric only. Scale: %

Field: example entries. Status: answers known.
CCO[C@@H](Cc1ccc(OCCn2c(C)ccc2-c2ccc(SC)cc2)cc1)C(=O)[O-].CCO[C@@H](Cc1ccc(OCCn2c(C)ccc2-c2ccc(SC)cc2)cc1)C(=O)[O-].[Mg+2] = 101.2
CCCCCC/C=C\CCCCCCCCCC(=O)N[C@H]1[C@H](OC[C@H]2O[C@H](OP(=O)([O-])[O-])[C@H](NC(=O)CC(=O)CCCCCCCCCCC)[C@@H](OCCCCCCCCCC)[C@@H]2O)O[C@H](COC)[C@@H](OP(=O)([O-])[O-])[C@@H]1OCC[C@@H](CCCCCCC)OC.[Na+].[Na+].[Na+].[Na+] [LX-9136, Eritoran tetrasodium] = 84.6
CN1CCc2c(c3ccccc3n2Cc2ccc(C(=O)NO)cc2)C1 = 87.9
COC[C@]1(CO)C(=O)[C@H]2CC[N@]1[C@H](C)C2 = 98.8
CN(CCOc1ccc(CC2SC(=O)NC2=O)cc1)c1ccccn1 (centres unmarked) = 79.5

(Q) Fill in: Survival (%) of CCNCc1nc2c(O)c(Cl)cc(Cl)c2c(=O)n1C is ___
(A) 92.1

(Q) Next up: CCCCCCCCCCCCCCCCCCCC(=O)N[C@H]1CC[C@@]2(C)[C@@H](C1)C[C@@H](O)[C@@H]1[C@@H]2C[C@H](O)[C@]2(C)[C@@H]([C@H](C)CCC(=O)O)CC[C@@H]12
(A) 101.2

(Q) What do we get for CC(=O)[O-].CC(=O)[O-].CCc1c(CC)c2cc3nc(cnc4cc(OCCOCCOCCOC)c(OCCOCCOCCOC)cc4ncc4nc(cc1[n-]2)C(CCCO)=C4C)C(C)=C3CCCO.O.[Gd+3] ?
(A) 97.6

(Q) Now try O=C1C2=C(CCN(Cc3ccccc3)C2)N2CCN=C2N1Cc1ccc(C(F)(F)F)cc1 .
(A) 49.2

(Q) What do we get for Nc1cc(COc2c(Cl)cc(C[C@H](N)C(=O)O)cc2Cl)c2oc(-c3ccccc3)nc2c1 ?
(A) 83.7

(Q) // same read-out, input: CN(CC(=O)Nc1nc2ccc(OC(F)(F)F)cc2s1)C(=O)CNC(=O)CN
(A) 94.5
